These entries and their values trace back to patent US8895744B2.

# systemUnderTest: BaF3 cells transformed with the oncogenic fusion protein NPM/ALK (Homo sapiens, UniProt Q9UM73)
# Construct: fused on or other part: P06748 (Nucleophosmin)
# Sequence (Q9UM73 whole entry, change not shown, the tested form may be a part): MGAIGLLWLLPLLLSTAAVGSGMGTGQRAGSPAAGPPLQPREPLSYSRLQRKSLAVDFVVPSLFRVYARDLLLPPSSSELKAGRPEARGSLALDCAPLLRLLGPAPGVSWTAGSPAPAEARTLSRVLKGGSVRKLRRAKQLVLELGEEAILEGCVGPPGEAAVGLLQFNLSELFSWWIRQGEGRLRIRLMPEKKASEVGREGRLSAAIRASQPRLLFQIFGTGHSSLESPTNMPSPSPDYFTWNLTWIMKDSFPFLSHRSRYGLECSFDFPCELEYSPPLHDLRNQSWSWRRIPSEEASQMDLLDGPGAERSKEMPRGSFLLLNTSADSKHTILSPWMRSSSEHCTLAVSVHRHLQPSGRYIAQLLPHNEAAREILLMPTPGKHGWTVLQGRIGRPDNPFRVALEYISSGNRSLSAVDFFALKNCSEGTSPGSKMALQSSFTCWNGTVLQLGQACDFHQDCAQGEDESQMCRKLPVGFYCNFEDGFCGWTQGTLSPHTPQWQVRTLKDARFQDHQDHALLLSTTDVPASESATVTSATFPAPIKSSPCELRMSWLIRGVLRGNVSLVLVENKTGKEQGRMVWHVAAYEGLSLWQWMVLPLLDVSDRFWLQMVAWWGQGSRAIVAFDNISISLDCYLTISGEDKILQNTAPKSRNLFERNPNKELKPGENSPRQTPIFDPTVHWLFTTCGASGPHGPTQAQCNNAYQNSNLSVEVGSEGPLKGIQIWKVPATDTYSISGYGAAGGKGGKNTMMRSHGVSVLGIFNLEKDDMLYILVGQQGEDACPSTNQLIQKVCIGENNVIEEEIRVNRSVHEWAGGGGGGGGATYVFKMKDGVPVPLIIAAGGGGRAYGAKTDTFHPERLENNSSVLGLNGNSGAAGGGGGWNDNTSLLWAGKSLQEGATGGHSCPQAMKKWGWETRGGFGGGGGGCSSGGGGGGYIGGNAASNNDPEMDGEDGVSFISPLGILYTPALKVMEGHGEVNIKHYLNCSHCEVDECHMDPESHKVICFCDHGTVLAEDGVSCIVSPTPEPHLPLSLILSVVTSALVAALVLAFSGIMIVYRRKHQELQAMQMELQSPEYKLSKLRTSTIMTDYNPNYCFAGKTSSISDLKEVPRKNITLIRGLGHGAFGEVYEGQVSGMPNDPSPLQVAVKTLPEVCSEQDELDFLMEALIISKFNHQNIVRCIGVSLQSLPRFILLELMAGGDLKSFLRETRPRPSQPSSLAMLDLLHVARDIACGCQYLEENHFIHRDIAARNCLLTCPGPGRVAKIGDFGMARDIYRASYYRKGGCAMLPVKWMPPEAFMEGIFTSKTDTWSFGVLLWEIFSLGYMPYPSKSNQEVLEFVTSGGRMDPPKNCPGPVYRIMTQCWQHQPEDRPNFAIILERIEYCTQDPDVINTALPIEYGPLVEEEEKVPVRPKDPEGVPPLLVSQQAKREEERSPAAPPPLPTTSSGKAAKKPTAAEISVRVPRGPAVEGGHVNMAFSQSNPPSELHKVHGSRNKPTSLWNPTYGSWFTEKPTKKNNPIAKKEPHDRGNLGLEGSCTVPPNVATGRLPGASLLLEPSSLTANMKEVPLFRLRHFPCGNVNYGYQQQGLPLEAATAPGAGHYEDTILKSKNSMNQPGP
# assayName: Tritiated thymidine uptake cell proliferation assay, BaF3 NPM/ALK
# Format: cell-based
# measurementParameters: 3[H]-thymidine uptake, 72 h; read-out: BaF NPM/ALK IC50
Could you please classify the records by GI50 using these ranges: class A (below 4 µM), class B (4 µM to below 10 µM), class C (10 µM or more)

[[record]]
compound = "O=C(CSc1cccc(Br)c1)c1ccc2[nH]c3ncc(Cl)cc3c2c1"
classlabel = "class C"

[[record]]
compound = "O=C(CSc1ccccc1)c1ccc2[nH]c3nc(Cl)ccc3c2c1"
classlabel = "class B"

[[record]]
compound = "O=[N+]([O-])c1ccccc1Nc1ccnc2[nH]c3ccccc3c12"
classlabel = "class A"

[[record]]
compound = "C(=C\\c1cnc2[nH]c3ccc(-c4ccc(N5CCOCC5)cn4)cc3c2c1)/c1ccccc1"
classlabel = "class C"

[[record]]
compound = "CC(=O)c1ccc2[nH]c3ncc(Cl)cc3c2c1 [R253, 6-acetyl-3-chloro-9H-pyrido[2,3-b]indole]"
classlabel = "class C"

[[record]]
compound = "c1ccc(-c2ccc(-c3ccnc4[nH]c5ccccc5c34)cc2)cc1"
classlabel = "class C"

[[record]]
compound = "Clc1cnc2[nH]c3ccc(Br)cc3c2c1 [R252, 6-bromo-3-chloro-9H-pyrido[2,3-b]indole]"
classlabel = "class C"

[[record]]
compound = "O=[N+]([O-])c1ccccc1Nc1ccc2c(n1)[nH]c1ccccc12"
classlabel = "class C"

[[record]]
compound = "O=[N+]([O-])c1cccc(Nc2ccnc3[nH]c4ccccc4c23)c1"
classlabel = "class C"

[[record]]
compound = "O=C(CSc1nc2ccccc2s1)c1ccc2[nH]c3ncc(Cl)cc3c2c1"
classlabel = "class C"

[[record]]
compound = "CCCC#Cc1ccc2c(n1)[nH]c1ccccc12 [R341, 2-(pent-1-ynyl)-9H-pyrido[2,3-b]indole]"
classlabel = "class C"

[[record]]
compound = "O=[N+]([O-])c1cccc(-c2ccnc3[nH]c4ccccc4c23)c1 [R331, 4-(3-nitrophenyl)-9H-pyrido[2,3-b]indole]"
classlabel = "class C"

[[record]]
compound = "O=C(CSCCOc1ccccc1)c1ccc2[nH]c3ncc(Cl)cc3c2c1"
classlabel = "class C"

[[record]]
compound = "c1coc(-c2ccc3c(n2)[nH]c2ccccc23)c1 [R326, 2-(furan-2-yl)-9H-pyrido[2,3-b]indole]"
classlabel = "class C"

[[record]]
compound = "c1ccc(CCc2ccc3[nH]c4ncc(-c5ccc6c(c5)OCO6)cc4c3c2)cc1"
classlabel = "class C"

[[record]]
compound = "O=C(CSc1ccccn1)c1ccc2[nH]c3ncc(Cl)cc3c2c1"
classlabel = "class A"

[[record]]
compound = "CCN(CC)CCSCC(=O)c1ccc2[nH]c3nc(Cl)ccc3c2c1"
classlabel = "class B"

[[record]]
compound = "O=C(CBr)c1ccc2[nH]c3ncccc3c2c1"
classlabel = "class B"

[[record]]
compound = "O=C(CSC1=NCCS1)c1ccc2[nH]c3ncc(Cl)cc3c2c1"
classlabel = "class C"

[[record]]
compound = "CCN(CC)CCCOc1ccc(-c2ccc3[nH]c4ncc(Cl)cc4c3c2)cc1"
classlabel = "class A"

[[record]]
compound = "O=[N+]([O-])c1cccc(-c2cnc3[nH]c4ccccc4c3c2)c1 [R328, 3-(3-nitrophenyl)-9H-pyrido[2,3-b]indole]"
classlabel = "class C"

[[record]]
compound = "O=C(CSc1ccccn1)c1ccc2[nH]c3ncccc3c2c1"
classlabel = "class C"

[[record]]
compound = "O=[N+]([O-])/C=C/c1ccc2[nH]c3ncc(Cl)cc3c2c1"
classlabel = "class A"

[[record]]
compound = "CCN(CC)CCSCC(=O)c1ccc2[nH]c3nc(Nc4cccc([N+](=O)[O-])c4)ccc3c2c1"
classlabel = "class A"

[[record]]
compound = "c1coc(-c2cnc3[nH]c4ccccc4c3c2)c1 [R325, 3-(furan-2-yl)-9H-pyrido[2,3-b]indole]"
classlabel = "class C"

[[record]]
compound = "Clc1cnc2[nH]c3ccc(-c4ccc(CN5CCOCC5)cc4)cc3c2c1"
classlabel = "class A"

[[record]]
compound = "c1ccc(-c2ccc(-c3cnc4[nH]c5ccccc5c4c3)cc2)cc1"
classlabel = "class C"

[[record]]
compound = "O=[N+]([O-])c1ccccc1Nc1ccc2c(n1)[nH]c1ccc(/C=C/c3ccccc3)cc12"
classlabel = "class A"

[[record]]
compound = "O=C(NCCc1ccc2[nH]c3ncc(Cl)cc3c2c1)c1ccccc1"
classlabel = "class C"

[[record]]
compound = "CN1CCN(C(=O)CCC(=O)c2ccc3[nH]c4nc(Cl)ccc4c3c2)CC1"
classlabel = "class B"

[[record]]
compound = "Oc1cnc2[nH]c3ccc(CCc4ccccc4)cc3c2c1"
classlabel = "class C"

[[record]]
compound = "COc1cccc(Nc2cnc3[nH]c4ccc(CCc5ccccc5)cc4c3c2)c1"
classlabel = "class B"

[[record]]
compound = "COc1ccc(CNC(=O)CCC(=O)c2ccc3[nH]c4ncc(Cl)cc4c3c2)cc1"
classlabel = "class A"

